Assay Explanation: Protonation constant (Proton-ligand formation constant) was determined
Assay type: ADME
Quantity Name: pKa
Answer field: number only, no words.

Exercise: Would you mind telling me what pKa value was observed for O=[N+]([O-])c1ccc(S(=O)(=O)Nc2ccccc2)cc1 ?
Key: 6.66

Reference source for all entries: ChEMBL document CHEMBL1142805
